Beta-galactosidase activity 0.2 μg DNA/well values by entry
# Tested on: COS-1 cells
# EXPERIMENTAL PROTOCOL: Transfection efficiency in COS-1 cells with a beta-galactosidase encoding plasmid
# Assay type: cell-based
# EXPERIMENTAL CONDITIONS: formulated as in example 1 (DOPE liposomes added to compound/DNA); 0.2 μg DNA/well; 48 h after transfection
Square brackets hold non-standard residues; d marks the D form. Peptide text beside a SMILES is read from it. * marks the point of attachment. Palmitoyl = CCCCCCCCCCCCCCCC(=O)*; dDab = NCC[C@@H](N)C(=O)O; Orn = NCCC[C@H](N)C(=O)O; Dab = NCC[C@H](N)C(=O)O; NHNH2 = NN*

COMPOUND	EXPERIMENTAL VALUE
CCCCCCCCCCCCCCCC(=O)NCC[C@@H](N)C(=O)N[C@H](CCN)C(=O)N[C@@H](CCN)C(=O)NN (H-[dDab](Palmitoyl)-[dDab]-[Dab]-NHNH2)	1847 μunits of beta-galactosidase p

Enquiry: I'd like to know its Beta-galactosidase activity 0.2 μg DNA/well. The compound in question is CCCCCCCCCCCCCCCC(=O)N[C@@H](CCCCN)C(=O)N[C@@H](CCCCN)C(=O)O
Return: 0 μunits of beta-galactosidase p

Enquiry: Same question for CCCCCCCCCCCCCCCC(=O)N[C@@H](CCCNC(=N)N)C(=O)N[C@@H](CCCN)C(=O)OC (Palmitoyl-Arg-[Orn]-OMe) please.
Return: 0 μunits of beta-galactosidase p

Enquiry: Same question for CCCCCCCCCCCCCCCC(=O)N[C@@H](CCCCN)C(=O)N[C@@H](CCCCN)C(=O)N[C@@H](CCCCN)C(=O)NN please.
Return: 136 μunits of beta-galactosidase p

Enquiry: Same question for CCCCCCCCCCCCCCCC(=O)N[C@@H](CCCCN)C(=O)N[C@@H](CO)C(=O)OC please.
Return: 0 μunits of beta-galactosidase p
